- Test system: Saccharomyces cerevisiae
- protocolSummary: protein stability index of tFT-peptide fusion (C-terminal peptide) (PSI (0-1 scale)); higher = more stable (slower turnover)
- runParameters: genetic background: wild type; temperature: 30 C
Parameter protein stability index: see the listing below.
endpointName: protein stability index

In [3]: df
Out[3]:
                                   residues             endpointname  experimentalresult
0     REVDDRFKVIYV [VPS35 C-terminal 12 aa]  protein stability index               0.695
1      QKEPNDQIDVEE [GPN3 C-terminal 12 aa]  protein stability index               0.698
2      ETNNVFQDAILR [DOC1 C-terminal 12 aa]  protein stability index               0.683
3   WKLYQDYLSGKV [YER134C C-terminal 12 aa]  protein stability index               0.719
4   CSTERPKRARCD [YOR342C C-terminal 12 aa]  protein stability index               0.695
5      TQSGDDYTIRLT [APM1 C-terminal 12 aa]  protein stability index               0.698
6      FSSFKFLDTSYL [CKI1 C-terminal 12 aa]  protein stability index               0.697
7  QSTAVFFTNKTD [YER076W-A C-terminal 12 aa]  protein stability index               0.684

###

- System: Saccharomyces cerevisiae
- protocolSummary: protein stability index of tFT-peptide fusion (C-terminal peptide) (PSI (0-1 scale)); higher = more stable (slower turnover)
- runParameters: genetic background: das1 deletion; temperature: 37 C
Classification field: enter satisfied for protein stability index values not below 0.7, not satisfied for values below it.

>>> df
       residues             subjectoftest  qualitativelabel
0  RLVCPFYIACVW  Saccharomyces cerevisiae     not satisfied
1  LGRVSAKFFCVL  Saccharomyces cerevisiae         satisfied
2  GILPIYNIISRL  Saccharomyces cerevisiae         satisfied
3  VECPWFCLGVLA  Saccharomyces cerevisiae     not satisfied
4  VYFRMGFMRVCV  Saccharomyces cerevisiae     not satisfied
5  GFNIFFFFFFFV  Saccharomyces cerevisiae     not satisfied

###

- Tested on: Saccharomyces cerevisiae
- protocolSummary: protein stability index of tFT-peptide fusion (C-terminal peptide) (PSI (0-1 scale)); higher = more stable (slower turnover)
- runParameters: genetic background: wild type; temperature: 30 C
Label class 0 if protein stability index falls below 0.3; label class 1 in every other case.

In [3]: df
Out[3]:
        residues  qualitativelabel
 0  GVVRKLCHWVVA           class 1
 1  SVVWIRFVGVRV           class 1
 2  GGWFFWVGAWVV           class 0
 3  AEVLCEIVIALR           class 1
 4  PHGASLCVPPSP           class 1
 5  PPSPPPLSASVP           class 1
 6  RGYATTALHWVS           class 1
 7  LWNFYELVVYAM           class 0
 8  IERLRLRTRIIC           class 0
 9  AVSFVTLSIMVM           class 0
10  LIFRLCVCGVFW           class 0
11  CTAWWVKGVAVK           class 1
12  PHGLKPHCPTPS           class 1
13  GFPFLFILYFLC           class 0
14  HLGNTMIKKLIG           class 1
15  GNSAGSVGGGRF           class 1
16  VRFPVFFIILFL           class 0
17  SRSFFRRLLFCF           class 1
18  CVLVLLLRLAFL           class 1
19  RLIARFKILRCI           class 0
20  FVVQSLNQMRLN           class 1
21  RIEGTLTARTAF           class 1
22  WFFRLFFLFFSG           class 1
23  FGLMCFIFYVLV           class 0
24  FLIVLLVIFFGF           class 0
25  GFPFLCSFLLAS           class 0
26  NHKTIRIQNKSI           class 0
27  VAALLCWLHLYA           class 1
28  FHFLFLFSLVSV           class 0

###

- Tested on: Saccharomyces cerevisiae
- protocolSummary: protein stability index of tFT-peptide fusion (C-terminal peptide) (PSI (0-1 scale)); higher = more stable (slower turnover)
- runParameters: genetic background: das1 deletion; temperature: 30 C
Entries and their measured protein stability index follow.
endpointName: protein stability index

>>> df
                                   residues             endpointname  experimentalresult
 0     TQSGDDYTIRLT [APM1 C-terminal 12 aa]  protein stability index               0.703
 1     RLGNLENIKIPK [AIM4 C-terminal 12 aa]  protein stability index               0.737
 2     EMRKRFFEKDLL [RAP1 C-terminal 12 aa]  protein stability index               0.696
 3     LQSDKDLQSLLT [CUE1 C-terminal 12 aa]  protein stability index               0.698
 4  FINCSSKYNGLQ [YBR224W C-terminal 12 aa]  protein stability index               0.687
 5    SSVKKKLYPKSK [RIM11 C-terminal 12 aa]  protein stability index               0.704
 6  TRPPCSPIAGYA [YOR345C C-terminal 12 aa]  protein stability index               0.608
 7     QVHPSRQELSFT [DON1 C-terminal 12 aa]  protein stability index               0.718
 8     PSYAKVQEFATP [NEO1 C-terminal 12 aa]  protein stability index                0.71
 9    NYLKKHSEKQDA [ATP19 C-terminal 12 aa]  protein stability index               0.709
10    SGDIVAVIETLA [DUR12 C-terminal 12 aa]  protein stability index                0.51
11  LETDQDFLDGLL [YER034W C-terminal 12 aa]  protein stability index               0.708
12     MIVRFFKKVTFR [CHS1 C-terminal 12 aa]  protein stability index               0.738
13    NVDVVTPNSIFI [TMA17 C-terminal 12 aa]  protein stability index                0.67
14     GIGFTNTSKKIA [RCL1 C-terminal 12 aa]  protein stability index               0.708

###

Catalogue of protein stability index values
- Test system: Saccharomyces cerevisiae
- protocolSummary: protein stability index of tFT-peptide fusion (C-terminal peptide) (PSI (0-1 scale)); higher = more stable (slower turnover)
- runParameters: genetic background: doa10 deletion; temperature: 30 C
endpointName: protein stability index

       residues  experimentalresult
0  CKYCKCVVLLWS               0.293
1  VVCLLGIFYGFC               0.293
2  DLRFAWLLSCFS               0.293
3  VLCFTSAYHRLV               0.206

###

- System: Saccharomyces cerevisiae
- protocolSummary: protein stability index of tFT-peptide fusion (C-terminal peptide) (PSI (0-1 scale)); higher = more stable (slower turnover)
- runParameters: genetic background: cdc34-1; temperature: 37 C
A collection of sequences and their measured protein stability index
endpointName: protein stability index

>>> df
        residues             subjectoftest  experimentalresult
 0  RLINCIYVLMLP  Saccharomyces cerevisiae               0.567
 1  FIMHRIFMALVI  Saccharomyces cerevisiae               0.386
 2  VSRVHIRIEGNH  Saccharomyces cerevisiae               0.694
 3  GFPFLCSFLLAS  Saccharomyces cerevisiae               0.384
 4  LDVGGRRGGEHC  Saccharomyces cerevisiae               0.598
 5  CVLVLLLRLAFL  Saccharomyces cerevisiae               0.551
 6  GYRFSILSILRV  Saccharomyces cerevisiae               0.581
 7  YMVSLSFTLVRS  Saccharomyces cerevisiae               0.382
 8  FWWVGCGWCRWG  Saccharomyces cerevisiae               0.619
 9  VRVLPFCWCIVR  Saccharomyces cerevisiae               0.177
10  CMILVACFYLPS  Saccharomyces cerevisiae               0.285
11  FFCCRLPCLFVL  Saccharomyces cerevisiae               0.369
12  PPPPLATTSAPL  Saccharomyces cerevisiae               0.687
13  GFFCVWSLLFFN  Saccharomyces cerevisiae               0.328
14  FFSFLFLLLFGA  Saccharomyces cerevisiae               0.566
15  CIHMNCSMMIIS  Saccharomyces cerevisiae              0.0533
16  KVFWRPAWVAEV  Saccharomyces cerevisiae               0.656
17  IRDGPWKRVLVV  Saccharomyces cerevisiae               0.599
18  QPSSFDMLGLLL  Saccharomyces cerevisiae               0.679
19  CPVSRHLLVLYW  Saccharomyces cerevisiae               0.413
20  LLASFWKFIVNI  Saccharomyces cerevisiae               0.613
21  LFFLSASFFFFF  Saccharomyces cerevisiae               0.458
22  IHIFIIFRVQWK  Saccharomyces cerevisiae               0.176
23  LTFRFGVNPYVF  Saccharomyces cerevisiae               0.631
24  HRHCVSSYQKVS  Saccharomyces cerevisiae               0.662
25  CFVICVCLCFGR  Saccharomyces cerevisiae               0.229
26  VGLWCWSFVLVW  Saccharomyces cerevisiae              0.0589
27  WGGIASLVASAA  Saccharomyces cerevisiae                0.36
28  FVYFLLVVCFAF  Saccharomyces cerevisiae               0.167
29  WLSFAIECGMVW  Saccharomyces cerevisiae               0.194
30  LGVCLFFVRCWS  Saccharomyces cerevisiae                0.18
31  FWESHVLPYRLL  Saccharomyces cerevisiae               0.654

Taken from the supplement of paper PMC10724198.
